Tested on: A431 (an epidermoid cancer)
MEASUREMENT_CONTEXT: A431, MB and MTT assays
Starred links: 1 amine or outer side, 2 acyl side, 3 side chain; linkers in the order of their positions; H or OH if unused. Non-standard residues stand in square brackets, D forms with d. Residues, ends and D or L forms follow the SMILES beside them. ξ: configuration not given here. *: point of attachment. X3 = CC1(C)O[C@H]2O[C@H](C(=O)[*:2])[C@@H](N[*:1])[C@H]2O1; X2 = CC1(C)OC2[C@H](O[C@H](C(=O)[*:2])[C@H]2N[*:1])O1; Trt = c1ccc(C(c2ccccc2)(c2ccccc2)*)cc1; Bta = N[C@@H](Cc1csc2ccccc12)C(=O)O; ξY = NC(Cc1ccc(O)cc1)C(=O)O; Nle = CCCC[C@H](N)C(=O)O; ξK = NCCCCC(N)C(=O)O; Bn = c1ccc(C*)cc1
METRIC_NAME: pIC50
Worth noting: pIC50 values are minus log10 of concentrations stated in mol/L.

Some solved entries appear below for comparison.
compound="CCCC[C@@H]1NC(=O)[C@@H](Cc2c[nH]c3ccccc23)NC(=O)[C@H](Cc2ccc(O)cc2)NC(=O)[C@H]2O[C@@H]3OC(C)(C)O[C@@H]3[C@@H]2NC(=O)[C@H]([C@@H](C)OC(c2ccccc2)(c2ccccc2)c2ccccc2)NC1=O [SGnc 7, cyclo[-D-Trp-Nle-Thr(OTrt)-Z1-Tyr-]] (cyclo([Nle]T(Trt)[X3]Y[dW]))" study_target="A431 (an epidermoid cancer)" meas_value=5.00
compound="C[C@@H](OC(c1ccccc1)(c1ccccc1)c1ccccc1)C1NC(=O)[C@H](CCCCN)NC(=O)[C@H](Cc2ccc3ccccc3c2)NC(=O)[C@H](Cc2ccc(O)cc2)NC(=O)[C@H]2O[C@@H]3OC(C)(C)OC3[C@@H]2NC1=O (some centres unmarked)" study_target="A431 (an epidermoid cancer)" meas_value=4.26
compound="CC1(C)OC2[C@H](O[C@@H]3C(=O)NC(Cc4ccc(O)cc4)C(=O)N[C@@H](Cc4csc5ccccc45)C(=O)NC(CCCCN)C(=O)N[C@@H](Cc4ccc(OCc5ccccc5)cc4)C(=O)N[C@@H]23)O1 (some centres unmarked) [SGnc 51] (cyclo([Bta][ξK]Y(Bn)[X2][ξY]))" study_target="A431 (an epidermoid cancer)" meas_value=4.46

Now examine the next entry.
Ask: Write pIC50 of C[C@@H](OC(c1ccccc1)(c1ccccc1)c1ccccc1)C1NC(=O)[C@H](CCCCN)NC(=O)[C@H](Cc2csc3ccccc23)NC(=O)[C@H](Cc2ccc(O)cc2)NC(=O)[C@H]2O[C@@H]3OC(C)(C)OC3[C@@H]2NC1=O (some centres unmarked) ; system used: A431 (an epidermoid cancer)
Result: 4.30
